# % Activation listing for each entry below
# ASSAYED_TARGET: ΔF508-CFTR (Homo sapiens, UniProt P13569, DEL508-508)
# Construct: host or cells: CFBE41o-, doxycycline-inducible
# TEST_DESCRIPTION: CFTR cell surface levels using HRP-tagged ΔF508-CFTR expressing CFBE cells, intrinsic corrector capacity
# Format: cell-based
# Design: concentration or dose not given beside the values
# TEST_PARAMETERS: HRP-tagged ΔF508-CFTR expressing CFBE41o- cells; compound alone (intrinsic corrector capacity); 20 hours at 33° C.
Note: unit % is implicit; provide only the numeric part.

Record excerpt, results attached:
COCCS(=O)(=O)NC(=O)c1cc(-c2ccc(CN3CCOCC3)cc2)c2c(OC(C)C)nn(C3CCCCC3)c2n1 | 160.8
CC(C)N(CCOc1cc(C(=O)NS(C)(=O)=O)nc2c1c(C1CCC1)nn2-c1ccccc1)C1COC1 | 151.4
Cc1nn(C2CCCCC2)c2nc(C(=O)NS(C)(=O)=O)cc(-c3cnc(N(C)C)nc3)c12 | 115.3
COCCS(=O)(=O)NC(=O)c1cc(N2CCC(COC)CC2)c2c(C(C)C)nn(-c3ccc(F)cc3)c2n1 | 309.83

Here is the next item to consider.
## Input Sample CC(C)c1nn(-c2ccc(F)cc2)c2nc(C(=O)NS(C)(=O)=O)cc(N3CCCC(C(F)F)C3)c12 (centres unmarked) — what was its % Activation?
## Output 202.8

* * *

# ASSAYED_TARGET: ΔF508-CFTR (Homo sapiens, UniProt P13569, DEL508-508)
# Construct: host or cells: CFBE41o-, doxycycline-inducible
# TEST_DESCRIPTION: CFTR cell surface levels using HRP-tagged ΔF508-CFTR expressing CFBE cells, intrinsic corrector capacity
# Type: cell-based
# TEST_PARAMETERS: HRP-tagged ΔF508-CFTR expressing CFBE41o- cells; compound alone (intrinsic corrector capacity); 20 hours at 33° C.; read-out: EC50
# Description: Measuring CFTR Cell Surface Levels Using HRP-Tagged ΔF508-CFTR Expressing CFBE Cells The HRP-tagged ΔF508-CFTR cell assay measures the expression of CFTR-ΔF508 at the plasma membrane. […] When HRP-tagged ΔF508-CFTR is present at the plasma membrane, the HRP enzyme activity can be measured. The amount of CFTR-ΔF508 that can be rescued to the plasma membrane is correlated with the amount of functional enzyme that can be measured. […]
# EC50 listing for each entry below
Note: unit µM is implicit; provide only the numeric part.

Record excerpt, results attached:
CS(=O)(=O)NC(=O)c1cc(C2CCN(CCC(F)(F)F)CC2)c2c(C3CCC3)nn(-c3ccc(F)cc3)c2n1 | 0.283
COCC1CCN(c2cc(C(=O)NS(=O)(=O)N3CCN(C)CC3)nc3c2c(C2CCC2)nn3-c2ccccc2)CC1 | 0.163
CCS(=O)(=O)NC(=O)c1cc(-c2ccc(N3CCOCC3)nc2)c2c(C(C)C)nn(-c3ccccc3)c2n1 | 0.542
CN(C)S(=O)(=O)NC(=O)c1cc(N2CCC(N3CCOCC3)CC2)c2c(C3CCC3)nn(-c3ccc4c(c3)OC(F)(F)O4)c2n1 | 0.113
CCCN(CC)S(=O)(=O)NC(=O)c1cc(OCC2CCOCC2)c2c(C3CCC3)nn(-c3ccccc3)c2n1 | 0.161

Here is the next item to consider.
## Input Sample `COC1CCN(C2CCN(c3cc(C(=O)NS(=O)(=O)N4CC(F)C4)nc4c3c(C3CCC3)nn4-c3ccc(F)cc3)CC2)CC1` — what was its EC50?
## Output 0.4

* * *

# ASSAYED_TARGET: CFTR ΔF508 (Homo sapiens, UniProt P13569, DEL508-508)
# Construct: bronchial epithelial cells isolated from CF patients homozygous for the CFTR ΔF508 mutation; McGill University; Asterand; University of North Carolina hAEC-CF; host or cells: primary human bronchial epithelial cells from CF patients homozygous for ΔF508, differentiated at air-liquid interface
# Sequence (P13569 with tags, fused parts or gaps DEL508-508): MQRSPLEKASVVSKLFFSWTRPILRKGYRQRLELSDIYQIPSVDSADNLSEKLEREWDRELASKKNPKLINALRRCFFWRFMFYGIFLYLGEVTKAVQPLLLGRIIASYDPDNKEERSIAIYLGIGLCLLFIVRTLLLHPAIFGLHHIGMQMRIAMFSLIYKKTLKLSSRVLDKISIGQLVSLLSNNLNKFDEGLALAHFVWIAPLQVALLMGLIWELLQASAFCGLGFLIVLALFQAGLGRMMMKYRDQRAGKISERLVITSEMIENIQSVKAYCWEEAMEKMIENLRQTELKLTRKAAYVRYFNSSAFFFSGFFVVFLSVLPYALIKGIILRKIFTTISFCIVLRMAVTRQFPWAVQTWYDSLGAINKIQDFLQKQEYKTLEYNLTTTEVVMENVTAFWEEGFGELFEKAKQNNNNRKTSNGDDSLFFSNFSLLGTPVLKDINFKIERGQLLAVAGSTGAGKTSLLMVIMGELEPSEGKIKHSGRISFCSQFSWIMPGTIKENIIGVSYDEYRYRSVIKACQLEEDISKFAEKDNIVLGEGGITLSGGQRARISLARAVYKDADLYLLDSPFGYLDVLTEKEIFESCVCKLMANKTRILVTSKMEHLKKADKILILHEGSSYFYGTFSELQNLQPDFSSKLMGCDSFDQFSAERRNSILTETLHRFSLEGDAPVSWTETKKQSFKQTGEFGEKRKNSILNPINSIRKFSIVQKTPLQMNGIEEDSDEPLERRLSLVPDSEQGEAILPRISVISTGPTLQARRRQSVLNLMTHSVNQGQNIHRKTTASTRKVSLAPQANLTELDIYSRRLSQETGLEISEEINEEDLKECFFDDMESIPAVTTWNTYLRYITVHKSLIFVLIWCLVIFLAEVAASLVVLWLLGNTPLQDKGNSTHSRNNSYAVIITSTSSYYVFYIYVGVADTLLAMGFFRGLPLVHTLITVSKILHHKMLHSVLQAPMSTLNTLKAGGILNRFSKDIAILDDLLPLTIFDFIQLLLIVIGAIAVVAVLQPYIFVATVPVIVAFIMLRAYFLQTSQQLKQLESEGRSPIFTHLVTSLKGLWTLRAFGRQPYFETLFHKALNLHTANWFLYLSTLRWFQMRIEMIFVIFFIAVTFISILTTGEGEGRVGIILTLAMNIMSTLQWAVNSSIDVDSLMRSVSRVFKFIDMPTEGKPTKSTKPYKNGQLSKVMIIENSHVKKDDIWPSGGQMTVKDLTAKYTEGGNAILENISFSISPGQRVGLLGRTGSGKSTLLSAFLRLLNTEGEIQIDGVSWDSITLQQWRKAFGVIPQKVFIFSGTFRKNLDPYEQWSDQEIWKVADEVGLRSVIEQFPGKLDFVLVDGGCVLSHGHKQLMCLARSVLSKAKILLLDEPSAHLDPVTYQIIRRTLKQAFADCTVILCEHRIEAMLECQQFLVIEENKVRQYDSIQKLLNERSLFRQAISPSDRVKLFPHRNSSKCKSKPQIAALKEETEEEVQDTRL
# TEST_DESCRIPTION: Chronic TECC assay, primary bronchial epithelial cells of CF patients homozygous for CFTR ΔF508 (corrector, co-corrector and potentiator)
# Assay type: cell-based
# TEST_PARAMETERS: chronic TECC; test compound at 1 μM; AUC = full area under the curve upon forskolin stimulation
RECORDED_METRIC: % Activity at 1 μM (AUC**)
Put your answer as a value accompanied by its unit after it.

Record excerpt, results attached:
COCC1CCN(c2cc(C(=O)NS(=O)(=O)CCN(C)C)nc3c2c(C2CCC2)nn3-c2ccccc2)CC1 [Compound 273] | 197.06%
CC(C)Oc1cc(-n2nc(C3CCC3)c3c(N4CCC(N5CCOCC5)CC4)cc(C(=O)NS(=O)(=O)N(C)C)nc32)ccn1 [Compound 529] | 520%
CC(=O)N1CCN(C2CCN(c3cc(C(=O)NS(=O)(=O)N(C)C)nc4c3c(C3CCC3)nn4-c3ccc(F)cc3)CC2)CC1 [Compound 493] | 271.4141%
CS(=O)(=O)NC(=O)c1cc(N2CCC(CN3CCOCC3)CC2)c2c(C3CCC3)nn(-c3ccc(F)cc3)c2n1 [Compound 410] | 233.3333%
O=C(NS(=O)(=O)C1CCOC1)c1cc(N2CCC(N3CCOCC3)CC2)c2c(C3CCC3)nn(-c3ccc(F)cc3)c2n1 (stereo not drawn) [Compound 429] | 180%

## Input Sample COCC1CCN(c2cc(C(=O)NS(C)(=O)=O)nc3c2c(C(C)C)nn3-c2ccnc(N3CCOCC3)c2)CC1 [Compound 248] — what was its % Activity at 1 μM (AUC**)?
## Output 275.96%

* * *

# % Activation listing for each entry below
# ASSAYED_TARGET: ΔF508-CFTR (Homo sapiens, UniProt P13569, DEL508-508)
# Construct: host or cells: CFBE41o-, doxycycline-inducible
# TEST_DESCRIPTION: CFTR cell surface levels using HRP-tagged ΔF508-CFTR expressing CFBE cells, intrinsic corrector capacity
# Type: cell-based
# Set-up: concentration or dose not given beside the values
# TEST_PARAMETERS: HRP-tagged ΔF508-CFTR expressing CFBE41o- cells; compound alone (intrinsic corrector capacity); 20 hours at 33° C.
Note: unit % is implicit; provide only the numeric part.

Record excerpt, results attached:
CCS(=O)(=O)NC(=O)c1cc(-c2ccc(N3CCOCC3)cc2)c2c(C(C)C)nn(C3CCCCC3)c2n1 [Compound 45] | 210.97
CC(C)c1nn(-c2ccc(F)cc2)c2nc(C(=O)NS(C)(=O)=O)cc(OCCCN3CCCCC3)c12 [Compound 307] | 172.7
COS(=O)(=O)NC(=O)c1cc(N2CCC(N3CCOCC3)CC2)c2c(C3CCC3)nn(-c3ccc(F)cc3)c2n1 [Compound 606] | 283.8
CC(C)N1CCN(c2cc(C(=O)NS(C)(=O)=O)nc3c2c(C2CCC2)nn3-c2ccccc2)CC1 [Compound 270] | 161.5
CS(=O)(=O)NC(=O)c1cc(C2CCN(CC3CCOCC3)CC2)c2c(C3CCC3)nn(-c3ccc(F)cc3)c2n1 [Compound 600] | 126.5

## Input Sample COCC1CCN(S(=O)(=O)NC(=O)c2cc(N3CCC(N4CCOCC4)CC3)c3c(C4CCC4)nn(-c4ccc(F)cc4)c3n2)CC1 [Compound 540] — what was its % Activation?
## Output 248.8

## Input Sample CS(=O)(=O)NC(=O)c1cc(N2CCC(N3CCOCC3)CC2)c2c(C3CCC3)nn(-c3cccc(F)c3)c2n1 [Compound 515] — what was its % Activation?
## Output 287.1

## Input Sample CC(C)N1CCN(C2CCN(c3cc(C(=O)NS(=O)(=O)N4CCC4)nc4c3c(C3CCC3)nn4-c3ccc(F)cc3)CC2)CC1 [Compound 651] — what was its % Activation?
## Output 317.85

* * *

# ASSAYED_TARGET: ΔF508-CFTR (Homo sapiens, UniProt P13569, DEL508-508)
# Construct: host or cells: CFBE41o-, doxycycline-inducible
# TEST_DESCRIPTION: CFTR cell surface levels using HRP-tagged ΔF508-CFTR expressing CFBE cells, in the presence of a co-corrector
# Type: cell-based
# TEST_PARAMETERS: HRP-tagged ΔF508-CFTR CFBE cells, in the presence of 3 μM co-corrector
# % Activation listing for each entry below
Put your answer as a value accompanied by its unit after it.

Record excerpt, results attached:
CC(C)c1nn(-c2ccc(F)cc2F)c2nc(C(=O)NS(C)(=O)=O)cc(-c3cnc(N4CCC(C#N)CC4)nc3)c12 | 335.5%
CC(C)c1nn(-c2ccnc(N3CCCC3)c2)c2nc(C(=O)NS(C)(=O)=O)cc(-c3ccc(N4CCC(C#N)CC4)nc3)c12 | 512.45%
CC(C)Oc1nn(C2CCCCC2)c2nc(C(=O)NS(=O)(=O)N(C)C)cc(-c3ccc(C(=O)N4CCN(C)CC4)cc3)c12 | 376.85%
CN(C)S(=O)(=O)NC(=O)c1cc(N2CCC(N3CCCCC3)CC2)c2c(C3CCC3)nn(-c3ccc(F)cc3)c2n1 | 399.79%
CCS(=O)(=O)NC(=O)c1cc(N2CCC(COC)CC2)c2c(C3CCC3)nn(-c3ccccc3)c2n1 | 507.35%
CC(C)c1nn(-c2ccc(F)cc2)c2nc(C(=O)NS(C)(=O)=O)cc(N3CCN(CC(F)(F)F)CC3)c12 | 328.87%
CC(C)c1nn(-c2ccc(F)cc2)c2nc(C(=O)NS(C)(=O)=O)cc(OCC3(C)COC3)c12 | 317.1%
COCCN(C)c1ccc(-c2cc(C(=O)NS(C)(=O)=O)nc3c2c(C(C)C)nn3-c2cccc(C(F)(F)F)c2)cc1 | 417.2%

## Input Sample `CS(=O)(=O)NC(=O)c1cc(N2CCC(N3CCOCC3)CC2)c2c(C3CCC3)nn(C3CCCCC3)c2n1` — what was its % Activation?
## Output 512.9%

## Input Sample `COCCS(=O)(=O)NC(=O)c1cc(N2CCC(COC)CC2)c2c(C3CCC3)nn(-c3ccc(F)cc3)c2n1` — what was its % Activation?
## Output 477.6%

## Input Sample `CC(C)c1nn(-c2ccc(F)cc2)c2nc(C(=O)NS(C)(=O)=O)cc(OCCC3CCOCC3)c12` — what was its % Activation?
## Output 327.57%

## Input Sample `COCCS(=O)(=O)NC(=O)c1cc(N2CCC(CCN3CCOCC3)CC2)c2c(C3CCC3)nn(-c3ccc(F)cc3)c2n1` — what was its % Activation?
## Output 598%

## Input Sample `CS(=O)(=O)NC(=O)c1cc(OCC2CCCCC2)c2c(C3CCC3)nn(-c3ccccc3)c2n1` — what was its % Activation?
## Output 357.93%

## Input Sample `CCCOC1CCN(c2cc(C(=O)NS(C)(=O)=O)nc3c2c(C2CCC2)nn3-c2ccccc2)CC1` — what was its % Activation?
## Output 409.9%

## Input Sample `CS(=O)(=O)NC(=O)c1cc(OCCN2CCS(=O)(=O)CC2)c2c(C3CCC3)nn(-c3ccccc3)c2n1` — what was its % Activation?
## Output 204.1%

## Input Sample `CC(C)c1nn(-c2cccc(N(C)C)c2)c2nc(C(=O)NS(C)(=O)=O)cc(OCC3CCOCC3)c12` — what was its % Activation?
## Output 388.5%

## Input Sample `CN(C)S(=O)(=O)NC(=O)c1cc(-c2ccc(CN3CCOCC3)cc2)c2c(C3CCC3)nn(C3CCCCC3)c2n1` — what was its % Activation?
## Output 289.95%
